# reported EC50; entries follow
target: β2-adrenergic receptor (B2-AR) (Homo sapiens); construct: expressed in transfected cells; test: cAMP Gs dynamic HTRF assay, cells expressing β2-adrenergic receptor; format: cell-based; conditions: CHO-K1 (HitHunter) cells; read-out: Average pEC50 [Receptor subtype: B2-AR; Cell type: CHO-K1 (HitHunter)] (converted)
Sequence (P07550 whole entry): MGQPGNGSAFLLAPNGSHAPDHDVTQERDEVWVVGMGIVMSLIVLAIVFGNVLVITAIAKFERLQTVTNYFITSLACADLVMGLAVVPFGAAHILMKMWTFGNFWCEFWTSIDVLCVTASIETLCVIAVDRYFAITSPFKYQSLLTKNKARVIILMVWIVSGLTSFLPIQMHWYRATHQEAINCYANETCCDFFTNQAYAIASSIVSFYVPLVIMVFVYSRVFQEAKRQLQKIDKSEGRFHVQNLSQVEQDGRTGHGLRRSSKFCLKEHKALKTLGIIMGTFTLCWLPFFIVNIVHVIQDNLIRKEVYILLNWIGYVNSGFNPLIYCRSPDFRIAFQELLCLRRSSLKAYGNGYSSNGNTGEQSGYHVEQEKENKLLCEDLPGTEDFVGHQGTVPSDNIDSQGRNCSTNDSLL
Reported Property: EC50

INSERT INTO results (entry_smiles, tgt, reported_property, result) VALUES
  ('CC(C)(C)NC[C@@H](O)c1nccc2[nH]ncc12', 'β2-adrenergic receptor (B2-AR) (Homo sapiens)', 'EC50', '> 1000 nM'),
  ('CC(C)(C)NC[C@H](O)c1cnc2[nH]cnc2c1', 'β2-adrenergic receptor (B2-AR) (Homo sapiens)', 'EC50', '10 to 100 nM'),
  ('Cc1nc2cc([C@@H](O)CNC(C)(C)C)ccc2[nH]1', 'β2-adrenergic receptor (B2-AR) (Homo sapiens)', 'EC50', '> 1000 nM'),
  ('CC(C)(C)NC[C@H](O)c1cccc2ccc(C(F)(F)F)nc12', 'β2-adrenergic receptor (B2-AR) (Homo sapiens)', 'EC50', '< 10 nM'),
  ('Cc1noc2cccc([C@@H](O)CNC(C)(C)C)c12', 'β2-adrenergic receptor (B2-AR) (Homo sapiens)', 'EC50', '> 1000 nM'),
  ('COc1ccc(C[C@@H](C)NC[C@H](O)c2ccc3c(n2)NCCO3)cc1', 'β2-adrenergic receptor (B2-AR) (Homo sapiens)', 'EC50', '10 to 100 nM'),
  ('CC(C)(C)NC[C@H](O)c1cccc2[nH]nc(F)c12', 'β2-adrenergic receptor (B2-AR) (Homo sapiens)', 'EC50', '< 10 nM'),
  ('Cc1nc(N)c(Cl)cc1[C@H](O)CNC(C)(C)C', 'β2-adrenergic receptor (B2-AR) (Homo sapiens)', 'EC50', '10 to 100 nM'),
  ('Cn1ncc2cc([C@@H](O)CNC(C)(C)C)ccc21', 'β2-adrenergic receptor (B2-AR) (Homo sapiens)', 'EC50', '> 1000 nM'),
  ('O=c1ccc2c([C@@H](O)CNC3CCC3)cccc2[nH]1', 'β2-adrenergic receptor (B2-AR) (Homo sapiens)', 'EC50', '< 10 nM');
